Please provide measured IC50 for the entries that follow.
# tested-system: Intercellular adhesion molecule (ICAM-1), Integrin alpha-L/beta-2 (Homo sapiens, UniProt P05107+P20701)
# Sequence (P20701 whole entry): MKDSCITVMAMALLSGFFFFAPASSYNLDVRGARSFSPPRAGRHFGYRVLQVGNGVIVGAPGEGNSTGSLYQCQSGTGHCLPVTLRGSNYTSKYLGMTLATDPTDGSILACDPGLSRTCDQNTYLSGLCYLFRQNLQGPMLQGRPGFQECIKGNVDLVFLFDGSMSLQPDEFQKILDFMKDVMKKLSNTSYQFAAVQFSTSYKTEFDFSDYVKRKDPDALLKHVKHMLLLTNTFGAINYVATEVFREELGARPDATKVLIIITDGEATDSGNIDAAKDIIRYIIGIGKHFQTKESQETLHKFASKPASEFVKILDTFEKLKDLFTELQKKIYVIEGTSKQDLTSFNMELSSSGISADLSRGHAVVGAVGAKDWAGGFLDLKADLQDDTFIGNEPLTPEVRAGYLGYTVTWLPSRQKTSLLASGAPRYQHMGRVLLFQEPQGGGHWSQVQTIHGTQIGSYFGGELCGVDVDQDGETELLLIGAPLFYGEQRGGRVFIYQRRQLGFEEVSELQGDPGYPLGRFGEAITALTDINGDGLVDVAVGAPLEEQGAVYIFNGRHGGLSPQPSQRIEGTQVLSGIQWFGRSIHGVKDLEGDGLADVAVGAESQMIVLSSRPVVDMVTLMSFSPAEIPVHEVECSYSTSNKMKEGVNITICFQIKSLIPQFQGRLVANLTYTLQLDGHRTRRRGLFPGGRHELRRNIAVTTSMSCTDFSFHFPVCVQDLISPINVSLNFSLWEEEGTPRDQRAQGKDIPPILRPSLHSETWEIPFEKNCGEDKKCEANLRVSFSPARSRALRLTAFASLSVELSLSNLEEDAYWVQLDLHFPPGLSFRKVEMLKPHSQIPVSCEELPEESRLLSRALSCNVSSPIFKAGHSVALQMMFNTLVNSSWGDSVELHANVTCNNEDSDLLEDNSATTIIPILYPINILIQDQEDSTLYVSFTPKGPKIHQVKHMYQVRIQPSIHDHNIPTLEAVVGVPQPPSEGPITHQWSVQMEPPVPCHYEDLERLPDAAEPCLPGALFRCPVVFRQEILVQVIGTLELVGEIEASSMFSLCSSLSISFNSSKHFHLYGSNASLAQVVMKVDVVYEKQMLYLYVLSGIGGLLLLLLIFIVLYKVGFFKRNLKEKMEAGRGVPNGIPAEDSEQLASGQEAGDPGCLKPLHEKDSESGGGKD
# Sequence (P05362 whole entry, further chain): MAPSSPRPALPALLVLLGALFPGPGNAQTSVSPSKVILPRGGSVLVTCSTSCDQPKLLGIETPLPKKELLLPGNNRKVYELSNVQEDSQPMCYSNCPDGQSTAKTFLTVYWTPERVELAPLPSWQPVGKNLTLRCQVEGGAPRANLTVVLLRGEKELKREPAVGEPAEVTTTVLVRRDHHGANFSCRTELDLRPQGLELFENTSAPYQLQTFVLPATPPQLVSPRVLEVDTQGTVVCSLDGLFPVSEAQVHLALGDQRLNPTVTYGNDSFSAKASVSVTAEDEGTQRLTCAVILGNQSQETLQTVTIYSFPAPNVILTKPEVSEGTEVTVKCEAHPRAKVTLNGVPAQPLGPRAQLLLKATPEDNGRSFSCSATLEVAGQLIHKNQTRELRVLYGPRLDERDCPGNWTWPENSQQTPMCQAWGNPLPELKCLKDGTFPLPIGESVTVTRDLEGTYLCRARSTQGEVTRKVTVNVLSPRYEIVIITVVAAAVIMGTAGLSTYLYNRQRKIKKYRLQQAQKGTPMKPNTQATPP
# Sequence (P05107 whole entry): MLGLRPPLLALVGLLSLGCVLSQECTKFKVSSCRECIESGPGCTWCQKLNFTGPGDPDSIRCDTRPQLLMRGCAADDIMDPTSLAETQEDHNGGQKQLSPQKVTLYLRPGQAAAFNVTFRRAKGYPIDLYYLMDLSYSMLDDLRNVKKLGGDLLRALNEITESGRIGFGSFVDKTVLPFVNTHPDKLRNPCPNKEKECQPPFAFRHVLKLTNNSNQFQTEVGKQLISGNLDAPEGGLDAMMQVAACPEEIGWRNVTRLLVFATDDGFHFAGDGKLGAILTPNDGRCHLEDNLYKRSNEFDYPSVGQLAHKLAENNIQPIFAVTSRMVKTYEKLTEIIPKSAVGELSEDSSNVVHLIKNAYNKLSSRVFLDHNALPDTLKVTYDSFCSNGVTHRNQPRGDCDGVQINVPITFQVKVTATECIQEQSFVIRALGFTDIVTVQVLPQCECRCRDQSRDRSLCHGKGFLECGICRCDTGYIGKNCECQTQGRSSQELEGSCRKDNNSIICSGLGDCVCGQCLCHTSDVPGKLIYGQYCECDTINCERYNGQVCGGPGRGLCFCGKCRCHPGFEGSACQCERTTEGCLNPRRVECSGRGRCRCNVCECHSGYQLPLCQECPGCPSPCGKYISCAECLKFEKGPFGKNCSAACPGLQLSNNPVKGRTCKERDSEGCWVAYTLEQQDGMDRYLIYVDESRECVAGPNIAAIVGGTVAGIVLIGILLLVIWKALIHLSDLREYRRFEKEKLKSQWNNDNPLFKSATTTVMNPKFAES
# method: Inhibition of LFA-1/ICAM-1 interaction in ELISA

Request: // IC50 lookup, key: CC(C)C[C@H]1C(=O)N([C@@H](Cc2ccc3ccccc3c2)C(N)=O)CC[C@@H](C)N1C(=O)Cc1ccc(Br)cc1
Response: 1300 nM

Request: # get_value(readout='IC50', item= CC(C)C[C@H]1C(=O)N([C@H](C(N)=O)c2ccc3ccccc3c2)CCC(C)N1C(=O)Cc1ccc2ccccc2c1 (some centres not stated) )
Response: > 20000 nM

Request: Requested read-out: IC50. Entry: CC(C)C[C@H]1C(=O)N([C@@H](Cc2ccc3ccccc3c2)C(=O)O)CC[C@@H](C)N1C(=O)Cc1ccc2ccccc2c1
Response: > 20000 nM

Request: Recorded IC50 of CC(C)C[C@H]1C(=O)N([C@@H](Cc2ccc3ccccc3c2)C(N)=O)CC[C@@H](C)N1C(=O)Cc1ccc2ccccc2c1 , please.
Response: 2000 nM

Request: What value of IC50 has been recorded for this entry: COC(=O)[C@H](Cc1ccc2ccccc2c1)N1CC[C@@H](C)N(C(=O)Cc2ccc3ncccc3c2)[C@@H](CC(C)C)C1=O
Response: 2600 nM

Request: Report IC50 for CC(C)C[C@H]1C(=O)N([C@@H](Cc2ccc3ccccc3c2)C(N)=O)CC[C@@H](C)N1C(=O)Cc1ccncc1 please.
Response: 970 nM

Request: Data request, read-out IC50, for CC(C)C[C@H]1C(=O)N([C@@H](Cc2ccc3ccccc3c2)C(N)=O)CC[C@@H](C)N1C(=O)Cc1ccccc1
Response: 750 nM
